Molecular target: Sodium-dependent serotonin transporter (Homo sapiens, UniProt P31645)
Sequence (P31645 whole entry): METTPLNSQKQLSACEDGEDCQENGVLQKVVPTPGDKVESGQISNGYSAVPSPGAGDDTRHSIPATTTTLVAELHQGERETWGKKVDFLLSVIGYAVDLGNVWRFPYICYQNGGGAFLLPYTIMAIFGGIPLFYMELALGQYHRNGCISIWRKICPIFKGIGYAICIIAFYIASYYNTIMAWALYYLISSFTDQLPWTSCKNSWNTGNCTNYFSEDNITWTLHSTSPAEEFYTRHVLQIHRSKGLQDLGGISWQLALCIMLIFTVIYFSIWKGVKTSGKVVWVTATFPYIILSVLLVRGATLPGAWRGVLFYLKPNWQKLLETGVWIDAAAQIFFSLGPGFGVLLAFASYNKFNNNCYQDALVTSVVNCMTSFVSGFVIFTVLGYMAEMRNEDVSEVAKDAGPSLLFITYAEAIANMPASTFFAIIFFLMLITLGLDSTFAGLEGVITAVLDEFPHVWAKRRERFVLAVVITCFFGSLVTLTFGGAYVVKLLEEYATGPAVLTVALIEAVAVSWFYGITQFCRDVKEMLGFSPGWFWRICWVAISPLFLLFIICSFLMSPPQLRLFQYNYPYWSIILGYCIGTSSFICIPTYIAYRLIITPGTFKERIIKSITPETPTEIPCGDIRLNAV
Experiment: Displacement of [3H]imipramine from human recombinant SERT receptor expressed in HEK293 cells
pIC50: −log10 of the molar value.
METRIC_NAME: pIC50

>>> assay_result("Cc1nc(C(=O)NCCCN2CCN(c3cccc(Cl)c3Cl)CC2)cc(C(C)C)n1.Cl")
6.19
>>> assay_result("CSc1nc(C)cc(C(=O)NCCN2CCN(c3cccc(Cl)c3Cl)CC2)n1.Cl")
6.06
>>> assay_result("Cc1nc(C(=O)NCCCN2CCN(c3cccc(C)c3C)CC2)cc(C(C)C)n1.Cl")
5.92
>>> assay_result("COc1c(C)nc(C)nc1C(=O)NCCN1CCN(c2cccc(Cl)c2Cl)CC1.Cl")
6.19
>>> assay_result("Cc1cc(C(=O)NCCCN2CCN(c3cccc(Cl)c3Cl)CC2)nc(C)n1.Cl")
6.54

====

Molecular target: Cytochrome P450 1A2 (Homo sapiens, UniProt P05177)
Sequence (P05177 whole entry): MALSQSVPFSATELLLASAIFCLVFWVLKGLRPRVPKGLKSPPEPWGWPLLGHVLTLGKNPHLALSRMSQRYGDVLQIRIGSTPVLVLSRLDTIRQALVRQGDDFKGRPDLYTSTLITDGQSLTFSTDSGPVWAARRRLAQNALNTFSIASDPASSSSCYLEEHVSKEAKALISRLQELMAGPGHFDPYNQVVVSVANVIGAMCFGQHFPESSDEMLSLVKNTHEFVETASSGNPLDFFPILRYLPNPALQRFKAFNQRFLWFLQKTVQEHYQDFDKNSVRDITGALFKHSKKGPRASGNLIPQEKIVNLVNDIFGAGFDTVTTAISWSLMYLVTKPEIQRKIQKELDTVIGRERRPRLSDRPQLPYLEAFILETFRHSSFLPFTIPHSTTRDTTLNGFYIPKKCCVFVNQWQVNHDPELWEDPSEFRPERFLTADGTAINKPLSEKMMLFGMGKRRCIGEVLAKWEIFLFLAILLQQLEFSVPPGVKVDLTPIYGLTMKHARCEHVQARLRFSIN
pIC50: −log10 of the molar value.
METRIC_NAME: pIC50

>>> assay_result("CSc1nc(C)cc(C(=O)NCCN2CCN(c3cccc(C)c3C)CC2)n1.Cl")
"< 4.70"

====

Target: 5-hydroxytryptamine receptor 2A (Homo sapiens)
Experiment: Displacement of [3H]ketanserin from human recombinant 5HT2A receptor expressed in CHO-K1 cells
pIC50: −log10 of the molar value.
Classification field: enter 1 for pIC50 values not below 7, -1 for values below it.

>>> label_value("CSc1nc(C)cc(C(=O)NCCN2CCN(c3cccc(Cl)c3Cl)CC2)n1.Cl")
1
>>> label_value("CSc1nc(C)cc(C(=O)NCCN2CCN(c3cccc(C)c3C)CC2)n1.Cl")
1
>>> label_value("Cc1cc(C(=O)NCCCN2CCN(c3cccc(Cl)c3Cl)CC2)nc(C)n1.Cl")
-1
>>> label_value("CSc1nc(C)cc(C(=O)NCCCN2CCN(c3cccc(C)c3C)CC2)n1.Cl")
1
>>> label_value("Cc1cc(C(=O)NCCCN2CCN(c3cccc(C)c3C)CC2)nc(C2CC2)n1.Cl")
-1
>>> label_value("Cc1nc(C(=O)NCCCN2CCN(c3cccc(C)c3C)CC2)cc(C(C)C)n1.Cl")
-1
>>> label_value("COc1c(C)nc(C)nc1C(=O)NCCN1CCN(c2cccc(Cl)c2Cl)CC1.Cl")
-1
>>> label_value("Cc1nc(C(=O)NCCCN2CCN(c3cccc(Cl)c3Cl)CC2)cc(-c2ccccc2)n1")
1

====

Biological target: UniProt P11712
Sequence (P11712 whole entry): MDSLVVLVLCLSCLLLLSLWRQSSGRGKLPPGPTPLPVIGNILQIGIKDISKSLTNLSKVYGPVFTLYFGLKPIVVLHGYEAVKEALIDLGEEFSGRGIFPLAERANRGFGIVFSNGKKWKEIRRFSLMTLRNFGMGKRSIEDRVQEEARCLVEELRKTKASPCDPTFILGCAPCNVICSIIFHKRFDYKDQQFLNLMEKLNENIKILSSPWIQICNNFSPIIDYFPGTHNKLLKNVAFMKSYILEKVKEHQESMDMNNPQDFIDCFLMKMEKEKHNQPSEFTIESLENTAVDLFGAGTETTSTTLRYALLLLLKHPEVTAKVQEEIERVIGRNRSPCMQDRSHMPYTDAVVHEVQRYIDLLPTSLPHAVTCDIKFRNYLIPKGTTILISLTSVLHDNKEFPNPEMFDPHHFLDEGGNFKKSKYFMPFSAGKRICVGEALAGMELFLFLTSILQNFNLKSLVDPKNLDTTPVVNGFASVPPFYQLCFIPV
METRIC_NAME: IC50

>>> assay_result("CSc1nc(C)cc(C(=O)NCCN2CCN(c3cccc(C)c3C)CC2)n1.Cl")
"> 20 µM"

====

Biological target: 5-hydroxytryptamine receptor 2A (Homo sapiens, UniProt P28223)
Sequence (P28223 whole entry): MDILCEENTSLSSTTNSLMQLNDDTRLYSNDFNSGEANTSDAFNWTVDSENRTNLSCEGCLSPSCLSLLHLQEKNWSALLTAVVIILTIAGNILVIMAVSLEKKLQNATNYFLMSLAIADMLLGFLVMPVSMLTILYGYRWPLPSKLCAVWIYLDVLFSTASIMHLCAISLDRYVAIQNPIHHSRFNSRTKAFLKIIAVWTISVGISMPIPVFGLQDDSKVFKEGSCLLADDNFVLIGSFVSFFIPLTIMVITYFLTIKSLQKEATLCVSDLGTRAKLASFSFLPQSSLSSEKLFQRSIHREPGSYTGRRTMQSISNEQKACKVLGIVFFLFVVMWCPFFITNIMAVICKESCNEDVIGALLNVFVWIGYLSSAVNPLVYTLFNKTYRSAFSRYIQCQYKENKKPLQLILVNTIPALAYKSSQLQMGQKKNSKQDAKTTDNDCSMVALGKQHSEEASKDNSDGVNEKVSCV
Assay: Displacement of [3H]ketanserin from human recombinant 5HT2A receptor expressed in CHO-K1 cells
METRIC_NAME: IC50 (nM)

>>> assay_result("COc1c(C)nc(C)nc1C(=O)NCCCN1CCN(c2cccc(C)c2C)CC1.Cl")
744
>>> assay_result("Cc1cc(C(=O)NCCCN2CCN(c3cccc(C)c3C)CC2)nc(C(C)(C)C)n1.Cl")
274
>>> assay_result("COc1c(C)nc(C)nc1C(=O)NCCN1CCN(c2cccc(C)c2C)CC1.Cl")
842
>>> assay_result("Cc1nc(C(=O)NCCCN2CCN(c3cccc(C)c3C)CC2)cc(C(C)(C)C)n1.Cl")
458

====

Biological target: Cytochrome P450 3A4 (Homo sapiens)
Sequence (P08684 whole entry): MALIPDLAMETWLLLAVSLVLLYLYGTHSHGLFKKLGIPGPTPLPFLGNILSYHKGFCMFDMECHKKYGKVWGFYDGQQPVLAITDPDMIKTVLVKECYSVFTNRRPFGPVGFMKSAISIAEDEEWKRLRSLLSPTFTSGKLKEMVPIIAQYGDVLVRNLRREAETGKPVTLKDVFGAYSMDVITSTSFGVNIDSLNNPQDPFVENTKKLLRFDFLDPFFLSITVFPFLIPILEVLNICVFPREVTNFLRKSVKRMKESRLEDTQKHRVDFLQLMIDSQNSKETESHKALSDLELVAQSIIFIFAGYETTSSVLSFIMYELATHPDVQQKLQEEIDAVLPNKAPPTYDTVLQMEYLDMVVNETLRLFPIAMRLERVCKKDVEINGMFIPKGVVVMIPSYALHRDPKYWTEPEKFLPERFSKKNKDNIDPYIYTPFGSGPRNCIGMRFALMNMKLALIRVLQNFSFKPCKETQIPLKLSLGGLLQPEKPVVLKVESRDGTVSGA
METRIC_NAME: IC50

>>> assay_result("CSc1nc(C)cc(C(=O)NCCN2CCN(c3cccc(C)c3C)CC2)n1.Cl")
"> 20 µM"

====

Target: Sodium-dependent serotonin transporter (Homo sapiens)
Assay: Displacement of [3H]imipramine from human recombinant SERT receptor expressed in HEK293 cells
pIC50: −log10 of the molar value.
METRIC_NAME: pIC50

>>> assay_result("COc1c(C)nc(C)nc1C(=O)NCCCN1CCN(c2cccc(C)c2C)CC1.Cl")
6.05
>>> assay_result("CSc1nc(C)cc(C(=O)NCCN2CCN(c3cccc(C)c3C)CC2)n1.Cl")
5.99
>>> assay_result("Cc1nc(C(=O)NCCCN2CCN(c3cccc(C)c3C)CC2)cc(C(C)(C)C)n1.Cl")
6.14
>>> assay_result("Cc1cc(C(=O)NCCN2CCN(c3cccc(C)c3C)CC2)nc(C(C)(C)C)n1.Cl")
5.20
>>> assay_result("CSc1nc(C)cc(C(=O)NCCCN2CCN(c3cccc(C)c3C)CC2)n1.Cl")
6.40

====

Target: Voltage-gated inwardly rectifying potassium channel KCNH2 (Homo sapiens, UniProt Q12809)
Sequence (Q12809 whole entry): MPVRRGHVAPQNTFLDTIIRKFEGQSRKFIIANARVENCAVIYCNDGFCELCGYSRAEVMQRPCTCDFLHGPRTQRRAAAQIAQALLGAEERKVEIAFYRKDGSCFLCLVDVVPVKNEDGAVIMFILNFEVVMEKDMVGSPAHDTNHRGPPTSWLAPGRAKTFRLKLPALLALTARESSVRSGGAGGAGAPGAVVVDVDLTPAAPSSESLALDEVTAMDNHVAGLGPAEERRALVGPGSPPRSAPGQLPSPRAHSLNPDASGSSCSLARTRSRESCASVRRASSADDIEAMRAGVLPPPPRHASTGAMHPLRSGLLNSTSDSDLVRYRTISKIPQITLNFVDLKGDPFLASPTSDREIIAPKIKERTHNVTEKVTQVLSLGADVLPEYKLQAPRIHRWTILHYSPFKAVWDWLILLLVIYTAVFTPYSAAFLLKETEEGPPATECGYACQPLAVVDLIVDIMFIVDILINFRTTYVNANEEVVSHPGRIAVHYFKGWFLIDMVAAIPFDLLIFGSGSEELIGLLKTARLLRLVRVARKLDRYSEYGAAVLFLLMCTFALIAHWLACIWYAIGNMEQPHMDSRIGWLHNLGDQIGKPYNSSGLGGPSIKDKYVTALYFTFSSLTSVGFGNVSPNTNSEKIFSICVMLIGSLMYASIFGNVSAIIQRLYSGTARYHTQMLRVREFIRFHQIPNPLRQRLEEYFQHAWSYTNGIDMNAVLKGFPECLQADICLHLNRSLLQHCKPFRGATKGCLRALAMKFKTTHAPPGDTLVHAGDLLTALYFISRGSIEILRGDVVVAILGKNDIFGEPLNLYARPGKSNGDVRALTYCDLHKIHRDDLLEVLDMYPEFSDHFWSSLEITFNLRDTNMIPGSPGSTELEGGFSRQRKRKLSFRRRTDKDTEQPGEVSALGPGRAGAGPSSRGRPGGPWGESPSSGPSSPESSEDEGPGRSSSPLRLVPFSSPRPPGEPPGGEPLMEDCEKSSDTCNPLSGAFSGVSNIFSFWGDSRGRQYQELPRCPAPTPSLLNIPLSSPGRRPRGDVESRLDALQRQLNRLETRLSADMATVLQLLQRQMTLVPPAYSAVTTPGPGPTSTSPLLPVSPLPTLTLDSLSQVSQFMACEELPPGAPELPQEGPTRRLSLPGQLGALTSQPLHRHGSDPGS
METRIC_NAME: IC50

>>> assay_result("Cc1nc(C(=O)NCCCN2CCN(c3cccc(Cl)c3Cl)CC2)cc(C(C)C)n1.Cl")
"5.4 µM"
>>> assay_result("Cc1nc(C(=O)NCCCN2CCN(c3cccc(C)c3C)CC2)cc(C(C)(C)C)n1.Cl")
"5.9 µM"

====

Biological target: 5-hydroxytryptamine receptor 2C (Homo sapiens, UniProt P28335)
Sequence (P28335 whole entry): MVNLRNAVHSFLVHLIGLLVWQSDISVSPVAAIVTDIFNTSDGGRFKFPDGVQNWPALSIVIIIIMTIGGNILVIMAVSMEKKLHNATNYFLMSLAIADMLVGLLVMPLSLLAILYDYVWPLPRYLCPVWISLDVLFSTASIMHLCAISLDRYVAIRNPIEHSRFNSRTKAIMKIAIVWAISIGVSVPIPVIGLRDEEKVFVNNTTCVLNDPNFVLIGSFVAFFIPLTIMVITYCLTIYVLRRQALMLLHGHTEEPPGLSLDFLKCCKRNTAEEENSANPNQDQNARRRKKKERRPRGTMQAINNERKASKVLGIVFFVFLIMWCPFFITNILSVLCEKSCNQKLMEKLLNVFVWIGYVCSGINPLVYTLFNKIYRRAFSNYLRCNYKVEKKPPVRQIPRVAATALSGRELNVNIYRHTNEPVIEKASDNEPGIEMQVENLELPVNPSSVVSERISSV
Assay: Displacement of [3H]mesulergine from human recombinant 5HT2C receptor expressed in CHO-K1 cells
pIC50: −log10 of the molar value.
// reported pIC50 per item
METRIC_NAME: pIC50

>>> assay_result("Cc1nc(C(=O)NCCCN2CCN(c3cccc(Cl)c3Cl)CC2)cc(C(C)C)n1.Cl")
6.64
>>> assay_result("Cc1cc(C(=O)NCCN2CCN(c3cccc(C)c3C)CC2)nc(C(C)(C)C)n1.Cl")
6.31
>>> assay_result("Cc1cc(C(=O)NCCCN2CCN(c3cccc(C)c3C)CC2)nc(C(C)(C)C)n1.Cl")
5.57
>>> assay_result("Cc1nc(C(=O)NCCCN2CCN(c3cccc(C)c3C)CC2)cc(C(C)C)n1.Cl")
5.81

====

Target: 5-hydroxytryptamine receptor 2C (Homo sapiens, UniProt P28335)
Assay: Displacement of [3H]mesulergine from human recombinant 5HT2C receptor expressed in CHO-K1 cells
pIC50: −log10 of the molar value.
METRIC_NAME: pIC50

>>> assay_result("CSc1nc(C)cc(C(=O)NCCN2CCN(c3cccc(C)c3C)CC2)n1.Cl")
6.83
>>> assay_result("Cc1cc(C(=O)NCCCN2CCN(c3cccc(C)c3C)CC2)nc(C2CC2)n1.Cl")
5.93
>>> assay_result("Cc1cc(C(=O)NCCCN2CCN(c3cccc(Cl)c3Cl)CC2)nc(C)n1.Cl")
6.21
>>> assay_result("Cc1nc(C(=O)NCCCN2CCN(c3cccc(C)c3C)CC2)cc(C(C)(C)C)n1.Cl")
6.24
>>> assay_result("COc1c(C)nc(C)nc1C(=O)NCCN1CCN(c2cccc(Cl)c2Cl)CC1.Cl")
6.87
>>> assay_result("Cc1nc(C(=O)NCCCN2CCN(c3cccc(Cl)c3Cl)CC2)cc(-c2ccccc2)n1")
7.52
>>> assay_result("COc1c(C)nc(C)nc1C(=O)NCCN1CCN(c2cccc(C)c2C)CC1.Cl")
5.90
>>> assay_result("CSc1nc(C)cc(C(=O)NCCCN2CCN(c3cccc(C)c3C)CC2)n1.Cl")
5.93
>>> assay_result("COc1c(C)nc(C)nc1C(=O)NCCCN1CCN(c2cccc(C)c2C)CC1.Cl")
5.69
>>> assay_result("CSc1nc(C)cc(C(=O)NCCN2CCN(c3cccc(Cl)c3Cl)CC2)n1.Cl")
7.09

====

Target: Sodium-dependent serotonin transporter (Homo sapiens)
Assay: Displacement of [3H]imipramine from human recombinant SERT receptor expressed in HEK293 cells
pIC50: −log10 of the molar value.
# pIC50 annotations
METRIC_NAME: pIC50

>>> assay_result("Cc1cc(C(=O)NCCCN2CCN(c3cccc(C)c3C)CC2)nc(C2CC2)n1.Cl")
6.46
>>> assay_result("COc1c(C)nc(C)nc1C(=O)NCCN1CCN(c2cccc(C)c2C)CC1.Cl")
5.68
>>> assay_result("Cc1cc(C(=O)NCCCN2CCN(c3cccc(C)c3C)CC2)nc(C(C)(C)C)n1.Cl")
6.27
>>> assay_result("Cc1nc(C(=O)NCCCN2CCN(c3cccc(Cl)c3Cl)CC2)cc(-c2ccccc2)n1")
6.23
